- experimental-system: p110δ/p85α (Homo sapiens)
- procedure-text: Transcreener KINASE Assay, kinase inhibition of p110δ/p85α
- Type: biochemical
- experimental-conditions: 1 uM test compound
attribute-measured: PI3Kδ IH % @ 1 uM (%)

O=c1c2c(Br)ccn2nc([C@@H]2CCN2c2ncnc3[nH]cnc23)n1-c1ccccc1: 91.1
N#Cc1cnc(N)nc1N1CCC[C@H]1c1nn2ccc(Cl)c2c(=O)n1-c1ccc(F)cc1: 98.1
C[C@H]1CN(c2nc(N)ncc2C#N)C1c1nn2ccc(Cl)c2c(=O)n1-c1ccccc1 (stereo partly shown): 96.2

----------
- experimental-system: p110β/p85α (Homo sapiens)
- procedure-text: Transcreener KINASE Assay, kinase inhibition of p110β/p85α
- experimental-conditions: read-out: PI3Kβ IC50
attribute-measured: IC50 (nM)

Some compounds with recorded IC50:
CC(=O)c1cnc(N)nc1NC(C)c1cn2ccc(Cl)c2c(=O)n1-c1ccccc1 (centres unmarked) [Compound 273]: 12
CC(=O)c1c[nH]c2ncnc(N3C[C@@H](F)C[C@H]3c3nn4ccc(Cl)c4c(=O)n3-c3ccccc3)c12 [Compound 268]: 170
Cc1ccn2nc([C@@H]3CCCN3c3ncnc(N)c3Cl)n(-c3ccccc3)c(=O)c12 [Compound 45]: 795
Cc1nc(N)nc(N2C[C@H](C)C2c2nn3ccc(F)c3c(=O)n2-c2ccccc2)c1C#N (some centres unmarked) [Compound 436]: 24
CC(Nc1ncnc(N)c1C#N)c1cc2ncc(Cl)n2c(=O)n1-c1ccccc1 (centres unmarked) [Compound 117]: 38

I = N#Cc1c[nH]c2ncnc(N3CCCC3c3cn4ccc(Cl)c4c(=O)n3-c3ccccc3)c12 (centres unmarked) [Compound 364]
II = C[S+]([O-])c1c[nH]c2ncnc(N3CCC[C@H]3c3nn4ccc(Cl)c4c(=O)n3-c3ccccc3)c12 (some centres unmarked) [Compound 186]
Please indicate which item has the smaller measured IC50: I versus II Answer format: the label of the selected item.
I

----------
Readings of PI3Kδ IH % @ 1 uM for the listed compounds
- experimental-system: p110δ/p85α (Homo sapiens, UniProt O00329)
- Sequence (O00329 whole entry): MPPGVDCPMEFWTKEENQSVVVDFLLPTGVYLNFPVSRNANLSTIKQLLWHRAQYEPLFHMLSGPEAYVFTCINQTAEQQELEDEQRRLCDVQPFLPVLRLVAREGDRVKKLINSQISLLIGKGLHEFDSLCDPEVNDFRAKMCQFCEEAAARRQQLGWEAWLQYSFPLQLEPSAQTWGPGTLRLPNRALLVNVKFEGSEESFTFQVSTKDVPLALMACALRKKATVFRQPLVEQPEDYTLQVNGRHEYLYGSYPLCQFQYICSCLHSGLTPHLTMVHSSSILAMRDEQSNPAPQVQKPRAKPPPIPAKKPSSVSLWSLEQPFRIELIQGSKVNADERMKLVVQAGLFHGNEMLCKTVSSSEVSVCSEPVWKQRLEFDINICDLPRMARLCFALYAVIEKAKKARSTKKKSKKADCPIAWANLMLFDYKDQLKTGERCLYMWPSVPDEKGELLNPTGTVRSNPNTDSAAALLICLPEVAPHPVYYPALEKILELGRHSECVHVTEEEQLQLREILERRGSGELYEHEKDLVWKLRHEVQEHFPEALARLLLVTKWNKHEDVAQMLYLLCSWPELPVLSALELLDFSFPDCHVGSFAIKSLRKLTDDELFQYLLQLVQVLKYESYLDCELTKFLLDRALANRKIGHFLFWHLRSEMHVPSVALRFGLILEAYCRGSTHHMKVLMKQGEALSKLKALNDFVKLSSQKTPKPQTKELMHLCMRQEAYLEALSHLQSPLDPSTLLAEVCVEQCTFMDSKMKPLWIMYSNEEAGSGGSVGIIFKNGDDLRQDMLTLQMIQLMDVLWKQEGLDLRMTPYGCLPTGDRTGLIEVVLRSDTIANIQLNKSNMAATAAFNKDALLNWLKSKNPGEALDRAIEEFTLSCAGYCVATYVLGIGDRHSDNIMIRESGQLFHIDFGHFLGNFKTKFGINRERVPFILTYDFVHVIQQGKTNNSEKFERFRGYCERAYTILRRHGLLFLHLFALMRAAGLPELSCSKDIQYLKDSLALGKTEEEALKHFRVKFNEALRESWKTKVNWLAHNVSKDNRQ
- Sequence (P27986 whole entry partner): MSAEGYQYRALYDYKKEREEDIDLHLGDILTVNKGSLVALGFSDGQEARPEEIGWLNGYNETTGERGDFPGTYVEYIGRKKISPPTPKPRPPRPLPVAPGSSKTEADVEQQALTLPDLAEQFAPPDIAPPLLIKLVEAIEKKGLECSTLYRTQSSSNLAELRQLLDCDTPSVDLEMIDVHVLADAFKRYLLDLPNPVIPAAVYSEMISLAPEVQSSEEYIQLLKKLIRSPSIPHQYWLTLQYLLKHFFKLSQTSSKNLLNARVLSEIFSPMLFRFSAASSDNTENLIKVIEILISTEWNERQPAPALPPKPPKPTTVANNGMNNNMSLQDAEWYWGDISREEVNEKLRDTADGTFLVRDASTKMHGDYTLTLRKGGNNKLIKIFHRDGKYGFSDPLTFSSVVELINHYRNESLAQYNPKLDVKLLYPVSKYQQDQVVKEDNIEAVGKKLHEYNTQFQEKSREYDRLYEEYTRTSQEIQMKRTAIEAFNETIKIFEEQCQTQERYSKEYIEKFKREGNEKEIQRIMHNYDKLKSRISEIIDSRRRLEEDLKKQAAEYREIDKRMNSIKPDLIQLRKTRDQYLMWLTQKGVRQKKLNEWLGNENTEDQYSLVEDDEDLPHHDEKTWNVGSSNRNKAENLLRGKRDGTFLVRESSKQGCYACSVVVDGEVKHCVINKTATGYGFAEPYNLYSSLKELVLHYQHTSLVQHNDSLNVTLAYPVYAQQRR
- procedure-text: Transcreener KINASE Assay, kinase inhibition of p110δ/p85α
- Format: biochemical
- experimental-conditions: 1 uM test compound

N#Cc1c[nH]c2ncnc(N3CC[C@H]3c3nn4ccc(F)c4c(=O)n3-c3ccccc3)c12: >100%
N#Cc1cnc(N)nc1N1CC(=O)C[C@H]1c1nn2ccc(F)c2c(=O)n1-c1ccccc1: >100%
CS(=O)(=O)c1cccc(-n2c([C@@H]3CCCN3c3ncnc4[nH]cnc34)nn3ccc(Cl)c3c2=O)c1: >100%
COc1ccc(-c2n[nH]c3ncnc(N4CCC[C@H]4c4nn5ccc(Cl)c5c(=O)n4-c4ccccc4)c23)cn1: 99.8%
COCc1ccn2nc([C@@H]3CCCN3c3ncnc4[nH]cc(C#N)c34)n(-c3ccccc3)c(=O)c12: >100%

Record request: PI3Kδ IH % @ 1 uM value, item `C[S@@+]([O-])c1c[nH]c2ncnc(N3CC[C@H]3c3nn4ccc(Cl)c4c(=O)n3-c3ccccn3)c12`
91.4%

----------
- experimental-system: p110β/p85α (Homo sapiens, UniProt P42338)
- Sequence (P42338 whole entry): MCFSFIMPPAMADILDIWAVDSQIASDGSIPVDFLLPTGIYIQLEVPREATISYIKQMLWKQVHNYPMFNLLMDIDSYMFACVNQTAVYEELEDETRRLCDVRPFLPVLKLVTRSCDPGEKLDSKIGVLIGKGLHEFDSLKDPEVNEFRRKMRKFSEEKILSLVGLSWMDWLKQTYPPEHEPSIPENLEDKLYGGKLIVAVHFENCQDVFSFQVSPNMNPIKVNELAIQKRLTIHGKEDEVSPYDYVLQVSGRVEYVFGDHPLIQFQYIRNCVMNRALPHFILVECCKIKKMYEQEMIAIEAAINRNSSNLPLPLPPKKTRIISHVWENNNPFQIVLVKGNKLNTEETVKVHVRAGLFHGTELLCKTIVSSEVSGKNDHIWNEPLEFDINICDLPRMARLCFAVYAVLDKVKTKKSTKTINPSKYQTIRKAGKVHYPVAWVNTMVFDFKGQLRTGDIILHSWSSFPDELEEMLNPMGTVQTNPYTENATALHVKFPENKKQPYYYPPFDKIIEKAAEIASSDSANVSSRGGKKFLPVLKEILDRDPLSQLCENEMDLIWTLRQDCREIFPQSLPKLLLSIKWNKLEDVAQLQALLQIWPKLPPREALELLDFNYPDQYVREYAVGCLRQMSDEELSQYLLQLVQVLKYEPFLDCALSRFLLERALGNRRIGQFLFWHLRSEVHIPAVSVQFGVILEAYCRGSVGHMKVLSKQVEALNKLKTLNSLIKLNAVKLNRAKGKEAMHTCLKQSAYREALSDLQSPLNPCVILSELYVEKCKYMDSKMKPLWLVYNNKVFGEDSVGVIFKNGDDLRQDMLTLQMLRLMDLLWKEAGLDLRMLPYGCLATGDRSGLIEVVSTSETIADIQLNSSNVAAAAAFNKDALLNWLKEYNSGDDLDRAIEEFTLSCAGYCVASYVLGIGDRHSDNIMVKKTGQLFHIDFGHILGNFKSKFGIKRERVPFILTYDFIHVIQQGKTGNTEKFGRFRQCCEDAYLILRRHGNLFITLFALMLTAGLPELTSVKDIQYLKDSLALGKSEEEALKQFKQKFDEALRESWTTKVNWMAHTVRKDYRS
- Sequence (P27986 2-724 partner): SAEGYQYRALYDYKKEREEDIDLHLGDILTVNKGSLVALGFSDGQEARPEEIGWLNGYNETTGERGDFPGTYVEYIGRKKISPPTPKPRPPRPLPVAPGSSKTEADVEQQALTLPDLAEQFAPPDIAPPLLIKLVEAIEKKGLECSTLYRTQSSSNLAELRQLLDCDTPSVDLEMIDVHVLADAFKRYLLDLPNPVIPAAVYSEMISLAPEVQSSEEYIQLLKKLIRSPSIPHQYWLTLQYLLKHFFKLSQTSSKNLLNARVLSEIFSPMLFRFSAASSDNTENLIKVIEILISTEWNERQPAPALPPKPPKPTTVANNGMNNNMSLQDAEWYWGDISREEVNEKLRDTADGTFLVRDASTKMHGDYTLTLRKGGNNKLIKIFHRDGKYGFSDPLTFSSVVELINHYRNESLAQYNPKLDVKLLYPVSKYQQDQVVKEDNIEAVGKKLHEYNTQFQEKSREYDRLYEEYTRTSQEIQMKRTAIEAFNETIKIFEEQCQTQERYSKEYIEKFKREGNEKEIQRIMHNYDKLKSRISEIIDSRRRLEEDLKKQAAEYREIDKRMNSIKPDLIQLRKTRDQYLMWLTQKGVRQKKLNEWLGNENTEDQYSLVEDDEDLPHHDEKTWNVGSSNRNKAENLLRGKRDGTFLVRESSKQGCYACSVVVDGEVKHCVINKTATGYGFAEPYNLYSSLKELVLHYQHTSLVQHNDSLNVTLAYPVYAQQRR
- procedure-text: Transcreener KINASE Assay, kinase inhibition of p110β/p85α
- Type: biochemical
- experimental-conditions: 1 uM test compound
attribute-measured: PI3Kβ IH % @ 1 uM (%)

O=c1c2c(Cl)ccn2cc(C2CCCN2c2ncnc3[nH]cnc23)n1-c1ccccc1 (centres unmarked): 68.3
N#Cc1cnc(N)nc1N1CC(=O)C[C@H]1c1nn2ccc(Cl)c2c(=O)n1-c1ccccc1: 71.7
O=c1c2c(Cl)ccn2nc([C@@H]2CCN2c2ncnc3[nH]cc(C#CCO)c23)n1-c1ccccc1: 71.3
C[S@@+]([O-])c1c[nH]c2ncnc(N3CCC[C@H]3c3nn4ccc(Cl)c4c(=O)n3-c3ccccc3)c12: 68.7
O=c1c2c(Cl)ccn2nc([C@@H]2CSCN2c2ncnc3[nH]cnc23)n1-c1ccccc1: 70.6

Taken from patent US20150307520A1.
